experiment: Therapeutic ratio is expressed as ratio of optimal dose and minimum effective dose; assay type: ADME; conditions: mouse; read-out: TR
test-readout: selectivity ratio
Please state the value as a number alone, without comment.

## Input Give me measured selectivity ratio, please, for this molecule: C#CCNC1=C(C)C(=O)C2=C(C1=O)[C@H](COC(N)=O)C1(OC)[C@@H]3N[C@@H]3CN21 (stereo not given in full)
## Output 64

## Input Answer with the recorded selectivity ratio for the molecule listed here: COC1=C(C)C(=O)C2=C(C1=O)[C@@H](COC(N)=O)[C@@]1(OC)[C@H]3N[C@H]3CN21
## Output 64

## Input Indicate the recorded selectivity ratio value for this molecule: C=CCNC1=C(C)C(=O)C2=C(C1=O)[C@H](COC(N)=O)C1(OC)[C@@H]3N[C@@H]3CN21 (stereo not given in full)
## Output 2

## Input Specify selectivity ratio for COC12[C@@H]3N[C@@H]3CN1C1=C(C(=O)C(NCc3cccs3)=C(C)C1=O)[C@@H]2COC(N)=O (stereo not given in full) and stop.
## Output 4

All values here come from ChEMBL document CHEMBL1121685.
